EXPERIMENTAL SYSTEM: Catechol O-methyltransferase (Sus scrofa, UniProt Q99028)
Sequence (Q99028 whole entry): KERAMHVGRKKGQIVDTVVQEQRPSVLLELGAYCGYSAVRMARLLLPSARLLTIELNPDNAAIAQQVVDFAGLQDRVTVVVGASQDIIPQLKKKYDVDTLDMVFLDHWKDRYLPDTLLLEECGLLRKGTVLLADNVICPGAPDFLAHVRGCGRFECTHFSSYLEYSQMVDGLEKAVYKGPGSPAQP
EXPERIMENTAL PROTOCOL: In vitro inhibitory activity against Catechol-O-methyltransferase from porcine liver; Uncompetitive mode of inhibition
pKi: −log10 of the molar value.
VALUE KIND: pKi

> print(dat)
                            chemical.smiles  reported.measurement
1  O=C(NCCCNC(=O)c1cc(O)c(O)c(O)c1)c1cc(O)c(O)c(O)c1                  5.18
2  O=C(NCCCCCNC(=O)c1cc(O)c(O)c(O)c1)c1cc(O)c(O)c(O)c1                  4.57
3  O=C(NCCCCCCNC(=O)c1cc(O)c(O)c(O)c1)c1cc(O)c(O)c(O)c1                  4.46
4  O=C(NCCNC(=O)c1cc(O)c(O)c(O)c1)c1cc(O)c(O)c(O)c1                  3.87

====

EXPERIMENTAL SYSTEM: Catechol O-methyltransferase (Sus scrofa)
EXPERIMENTAL PROTOCOL: In vitro inhibitory activity against Catechol-O-methyltransferase from porcine liver; Competitive mode of inhibition
pKi: −log10 of the molar value.
VALUE KIND: pKi

> print(dat)
                            chemical.smiles                       experimental.system  value.kind  reported.measurement
1                CCCNC(=O)c1cc(O)c(O)c(O)c1  Catechol O-methyltransferase (Sus scrofa)         pKi                  6.30
2  O=C(NCCCNC(=O)c1ccc(O)c(O)c1)c1ccc(O)c(O)c1  Catechol O-methyltransferase (Sus scrofa)         pKi                  6.52
